Reported OX2R agonist activity (3 uM, %) values for a set of molecules
Target: human OX2 receptor (Homo sapiens)
Construct: expressed in transfected cells
Sequence (O43614 1-444): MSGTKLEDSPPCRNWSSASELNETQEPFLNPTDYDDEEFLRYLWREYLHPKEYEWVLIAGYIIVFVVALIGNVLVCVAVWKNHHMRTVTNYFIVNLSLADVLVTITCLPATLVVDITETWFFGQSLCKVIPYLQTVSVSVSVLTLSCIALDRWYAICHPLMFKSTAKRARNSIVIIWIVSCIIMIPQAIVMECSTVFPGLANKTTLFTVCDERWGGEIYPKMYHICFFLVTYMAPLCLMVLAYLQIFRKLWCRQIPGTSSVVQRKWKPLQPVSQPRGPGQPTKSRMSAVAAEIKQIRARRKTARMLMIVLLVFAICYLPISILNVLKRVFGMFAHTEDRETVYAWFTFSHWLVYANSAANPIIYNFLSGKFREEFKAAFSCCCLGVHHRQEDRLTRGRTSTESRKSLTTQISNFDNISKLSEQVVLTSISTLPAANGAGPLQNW
Test: Measurement of orexin type 2 receptor agonist activity (calcium fluorescence, Fluo-4, FDSS)
Type: cell-based
Settings: 3 uM test compound; CHO cells expressing human OX2 receptor; DMSO = 0%, 10 nM orexin A (human) = 100%
Provide the reading as a plain figure in %.

MOLECULE	OX2R agonist activity (3 uM, %)
CS(=O)(=O)N[C@@H]1CN2C(=O)N(c3noc4cccc(-c5c(F)cccc5F)c34)C[C@H]2CC1(F)F (relative stereo)	101

What does the data say about its OX2R agonist activity (3 uM, %)? Entry: CCS(=O)(=O)N[C@@H]1CN2C(=O)N(c3noc4cccc(-c5c(F)cc(F)cc5F)c34)C[C@@H]2C1(F)F 104

* * *

Listed here: items and their measured OX2R agonist activity (3 uM, %).
Biological target: human OX2 receptor (Homo sapiens, UniProt O43614)
Construct: expressed in transfected cells
Sequence (O43614 1-444): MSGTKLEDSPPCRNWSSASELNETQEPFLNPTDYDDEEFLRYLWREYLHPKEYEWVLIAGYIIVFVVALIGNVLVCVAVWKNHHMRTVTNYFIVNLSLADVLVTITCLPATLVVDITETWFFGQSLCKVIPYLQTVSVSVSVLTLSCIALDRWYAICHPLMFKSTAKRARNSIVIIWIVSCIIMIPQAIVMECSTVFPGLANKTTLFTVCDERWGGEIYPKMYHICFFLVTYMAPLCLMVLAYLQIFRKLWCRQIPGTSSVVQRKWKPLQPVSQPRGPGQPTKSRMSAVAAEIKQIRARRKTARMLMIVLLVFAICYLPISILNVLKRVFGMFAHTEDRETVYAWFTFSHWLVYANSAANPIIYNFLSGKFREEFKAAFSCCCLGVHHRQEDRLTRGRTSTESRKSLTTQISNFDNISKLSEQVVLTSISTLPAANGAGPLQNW
Experiment: Measurement of orexin type 2 receptor agonist activity (calcium fluorescence, Fluo-4, FDSS)
Type: cell-based
Settings: 3 uM test compound; CHO cells expressing human OX2 receptor; DMSO = 0%, 10 nM orexin A (human) = 100%
Response body: numeric value in %, unit text excluded.

Solved cases below.
COMPOUND	OX2R agonist activity (3 uM, %)
CCS(=O)(=O)N[C@@H]1CN2C(=O)N(c3noc4cc(C)cc(-c5c(F)cccc5F)c34)C[C@@H]2C1(F)F [Example 154]	98
Cc1cc2onc(N3CC[C@H]4N(C[C@@H](NS(=O)(=O)C5CC5)C4(F)F)C3=O)c2c(-c2c(F)cccc2F)n1 [Example 268]	104
CCS(=O)(=O)NC1Cn2c(C)c(-c3noc4cccc(-c5c(F)cccc5F)c34)c(=O)n2C1 (single isomer, unassigned) [Example 336]	98
CCS(=O)(=O)N[C@@H]1Cn2c(cn(-c3noc4cc(C)c(F)c(-c5c(F)cccc5F)c34)c2=O)C1(F)F [Example 169]	103
Cc1cc2onc(N3CC[C@H]4N(C[C@@H](NS(=O)(=O)C5CC5)C4(F)F)C3=O)c2c(-c2c(F)cc(F)cc2F)n1 [Example 233]	109

Bench note: what OX2R agonist activity (3 uM, %) did CCS(=O)(=O)N[C@@H]1Cn2c(cn(-c3noc4cc(C)nc(-c5c(F)cc(F)cc5F)c34)c2=O)C1(F)F [Example 198] show? 112

Dear colleague, I am looking for the recorded OX2R agonist activity (3 uM, %) of the following compound: O=C1N(c2noc3cc(F)c(F)c(-c4c(F)cccc4F)c23)CC[C@H]2N1C[C@@H](NS(=O)(=O)CF)C2(F)F [Example 313] 99

Give its OX2R agonist activity (3 uM, %) value. Item: O=c1n(-c2noc3cc(F)cc(-c4c(F)cccc4F)c23)cc2n1C[C@@H](NS(=O)(=O)CF)C2(F)F [Example 283] 107
